- study system: transketolase (purified TK apo enzyme) (Homo sapiens)
- Sequence (P29401 1-623): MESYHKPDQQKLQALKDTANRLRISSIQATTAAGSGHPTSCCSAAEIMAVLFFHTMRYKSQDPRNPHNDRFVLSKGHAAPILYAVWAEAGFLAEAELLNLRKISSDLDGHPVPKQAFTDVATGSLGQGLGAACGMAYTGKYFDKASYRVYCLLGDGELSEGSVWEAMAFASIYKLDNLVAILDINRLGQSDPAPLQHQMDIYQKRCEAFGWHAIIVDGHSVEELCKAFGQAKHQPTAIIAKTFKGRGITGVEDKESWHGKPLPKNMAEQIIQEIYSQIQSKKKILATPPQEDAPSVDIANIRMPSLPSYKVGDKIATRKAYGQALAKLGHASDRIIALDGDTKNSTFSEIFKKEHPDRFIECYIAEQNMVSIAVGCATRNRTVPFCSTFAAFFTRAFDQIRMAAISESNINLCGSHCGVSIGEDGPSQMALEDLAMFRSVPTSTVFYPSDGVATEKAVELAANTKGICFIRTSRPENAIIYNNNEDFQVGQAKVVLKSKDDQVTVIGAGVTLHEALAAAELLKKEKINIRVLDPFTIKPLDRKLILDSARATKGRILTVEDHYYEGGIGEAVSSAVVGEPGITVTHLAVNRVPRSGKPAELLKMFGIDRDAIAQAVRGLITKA
reported property: IC50 (µM)

Known IC50 results, listed for orientation:
compound: Cc1ccc(C[n+]2csc([C@@H](O)CO)c2C)c(N)n1
reported property: IC50
uom: µM
numeric result: 0.0268

compound: Cc1cnc(N)c(C[n+]2csc(CCO)c2C)c1
reported property: IC50
uom: µM
numeric result: 0.109

(1) Cc1ccc(C[n+]2c(C)sc(CCO)c2C)c(N)n1 [drawing 55]
(2) Cc1c(CCO)sc[n+]1Cc1ccc(N2C(=O)c3ccccc3C2=O)nc1
Consider 1 and 2 . Which of these has its IC50 at a higher number? Bench note: the answer is the label of the chosen record.
2
(2: 0.143 µM, 1: 0.0246 µM)
